Tested on: Igrov1 cells
Experiment: In vitro cell killing (cell proliferation assay, Cell Titer-Glo) on FolRα positive Igrov1 cells
Type: cell-based
Conditions: Homo sapiens, IGROV-1, 120 h
Procedure: Anti-FolRα antibody conjugated to hemiasterlin with a cathepsin cleavable ValCit linker was used as control. […] Cytotoxicity effects of the ADCs were measured with a cell proliferation assay. […] Relative luminescence was measured on an ENVISION® plate reader (Perkin-Elmer; Waltham, MA). Relative luminescence readings were converted to % viability using untreated cells as controls. […]
Quantity Name: EC50 (nM)
Express the result in nM but write the number alone.

Could you please provide reported EC50 for CC[C@@]1(O)C(=O)OCc2c1cc1n(c2=O)Cc2c-1nc1cc(F)c(C)c3c1c2[C@@H](N)CC3 ? Thanks!
0.27
